- study.system: TRAIL receptors
- assay.comment: cell-based or functional assay
observed.property: EC50 measured by use of L929 cells (ng/mL)
Write down the numeric answer in ng/mL and omit the unit.

# binder, result.unit, EC50 measured by use of L929 cells
data = [
    ("super-TRAIL AX-1618, P50591 114-281 (ligand) VRERGPQRVAAHITGTRGRSNTLSSPNSKNEKALGRKINSWESSRSGHSFLSNLHLRNGELVIHEKGFYYIYSQTYFRFQEEIKENTKNDKQMVQYIYKYTSYPDPILLMKSARNSCWSKDAEYGLYSIYQGGIFELKENDRIFVSVTNEHLIDMDHEASFFGAFLVGGGGSGGGGSGGVAAHITGTRGRSNTLSSPNSKNEKALGRKINSWESSRSGHSFLSNLHLRNGELVIHEKGFYYIYSQTYFRFQEEIKENTKNDKQMVQYIYKYTSYPDPILLMKSARNSCWSKDAEYGLYSIYQGGIFELKENDRIFVSVTNEHLIDMDHEASFFGAFLVG", "ng/mL", 1.5),
    ("super-TRAIL AX-1630, P50591 114-281 (ligand) VRERGPQRVAAHITGTRGRSNTLSSPNSKNEKALGRKINSWESSRSGHSFLSNLHLRNGELVIHEKGFYYIYSQTYFRFQEEIKENTKNDKQMVQYIYKYTSYPDPILLMKSARNSCWSKDAEYGLYSIYQGGIFELKENDRIFVSVTNEHLIDMDHEASFFGAFLVGGGGGGGGGVAAHITGTRGRSNTLSSPNSKNEKALGRKINSWESSRSGHSFLSNLHLRNGELVIHEKGFYYIYSQTYFRFQEEIKENTKNDKQMVQYIYKYTSYPDPILLMKSARNSCWSKDAEYGLYSIYQGGIFELKENDRIFVSVTNEHLIDMDHEASFFGAFLVG", "ng/mL", 0.78),
    ("super-TRAIL AX-1606, P50591 120-281 (ligand) QRVAAHITGTRGRSNTLSSPNSKNEKALGRKINSWESSRSGHSFLSNLHLRNGELVIHEKGFYYIYSQTYFRFQEEIKENTKNDKQMVQYIYKYTSYPDPILLMKSARNSCWSKDAEYGLYSIYQGGIFELKENDRIFVSVTNEHLIDMDHEASFFGAFLVGGGGSGGGGSGGQRVAAHITGTRGRSNTLSSPNSKNEKALGRKINSWESSRSGHSFLSNLHLRNGELVIHEKGFYYIYSQTYFRFQEEIKENTKNDKQMVQYIYKYTSYPDPILLMKSARNSCWSKDAEYGLYSIYQGGIFELKENDRIFVSVTNEHLIDMDHEASFFGAFLVG", "ng/mL", 1.05),
    ("super-TRAIL AX-1632, P50591 114-281 (ligand) VRERGPQRVAAHITGTRGRSNTLSSPNSKNEKALGRKINSWESSRSGHSFLSNLHLRNGELVIHEKGFYYIYSQTYFRFQEEIKENTKNDKQMVQYIYKYTSYPDPILLMKSARNSCWSKDAEYGLYSIYQGGIFELKENDRIFVSVTNEHLIDMDHEASFFGAFLVGGGGGGGGGGVAAHITGTRGRSNTLSSPNSKNEKALGRKINSWESSRSGHSFLSNLHLRNGELVIHEKGFYYIYSQTYFRFQEEIKENTKNDKQMVQYIYKYTSYPDPILLMKSARNSCWSKDAEYGLYSIYQGGIFELKENDRIFVSVTNEHLIDMDHEASFFGAFLVG", "ng/mL", 1.1),
    ("super-TRAIL AX-1620, P50591 114-281 (ligand) VRERGPQRVAAHITGTRGRSNTLSSPNSKNEKALGRKINSWESSRSGHSFLSNLHLRNGELVIHEKGFYYIYSQTYFRFQEEIKENTKNDKQMVQYIYKYTSYPDPILLMKSARNSCWSKDAEYGLYSIYQGGIFELKENDRIFVSVTNEHLIDMDHEASFFGAFLVGGGGSGGGGSGGGSGGVAAHITGTRGRSNTLSSPNSKNEKALGRKINSWESSRSGHSFLSNLHLRNGELVIHEKGFYYIYSQTYFRFQEEIKENTKNDKQMVQYIYKYTSYPDPILLMKSARNSCWSKDAEYGLYSIYQGGIFELKENDRIFVSVTNEHLIDMDHEASFFGAFLVG", "ng/mL", 2.1),
    ("super-TRAIL AX-1631, P50591 114-281 (ligand) VRERGPQRVAAHITGTRGRSNTLSSPNSKNEKALGRKINSWESSRSGHSFLSNLHLRNGELVIHEKGFYYIYSQTYFRFQEEIKENTKNDKQMVQYIYKYTSYPDPILLMKSARNSCWSKDAEYGLYSIYQGGIFELKENDRIFVSVTNEHLIDMDHEASFFGAFLVGGGGGGGVAAHITGTRGRSNTLSSPNSKNEKALGRKINSWESSRSGHSFLSNLHLRNGELVIHEKGFYYIYSQTYFRFQEEIKENTKNDKQMVQYIYKYTSYPDPILLMKSARNSCWSKDAEYGLYSIYQGGIFELKENDRIFVSVTNEHLIDMDHEASFFGAFLVG", "ng/mL", 1.2),
]

The reported value for super-TRAIL AX-1611, P50591 114-281 (ligand) VRERGPQRVAAHITGTRGRSNTLSSPNSKNEKALGRKINSWESSRSGHSFLSNLHLRNGELVIHEKGFYYIYSQTYFRFQEEIKENTKNDKQMVQYIYKYTSYPDPILLMKSARNSCWSKDAEYGLYSIYQGGIFELKENDRIFVSVTNEHLIDMDHEASFFGAFLVGGGGGGVAAHITGTRGRSNTLSSPNSKNEKALGRKINSWESSRSGHSFLSNLHLRNGELVIHEKGFYYIYSQTYFRFQEEIKENTKNDKQMVQYIYKYTSYPDPILLMKSARNSCWSKDAEYGLYSIYQGGIFELKENDRIFVSVTNEHLIDMDHEASFFGAFLVG in terms of EC50 measured by use of L929 cells is 0.85

The reported value for super-TRAIL AX-1622, P50591 114-281 (ligand) VRERGPQRVAAHITGTRGRSNTLSSPNSKNEKALGRKINSWESSRSGHSFLSNLHLRNGELVIHEKGFYYIYSQTYFRFQEEIKENTKNDKQMVQYIYKYTSYPDPILLMKSARNSCWSKDAEYGLYSIYQGGIFELKENDRIFVSVTNEHLIDMDHEASFFGAFLVGGGGSGGGVAAHITGTRGRSNTLSSPNSKNEKALGRKINSWESSRSGHSFLSNLHLRNGELVIHEKGFYYIYSQTYFRFQEEIKENTKNDKQMVQYIYKYTSYPDPILLMKSARNSCWSKDAEYGLYSIYQGGIFELKENDRIFVSVTNEHLIDMDHEASFFGAFLVG in terms of EC50 measured by use of L929 cells is 5.3

The reported value for super-TRAIL AX-1623, P50591 114-281 (ligand) VRERGPQRVAAHITGTRGRSNTLSSPNSKNEKALGRKINSWESSRSGHSFLSNLHLRNGELVIHEKGFYYIYSQTYFRFQEEIKENTKNDKQMVQYIYKYTSYPDPILLMKSARNSCWSKDAEYGLYSIYQGGIFELKENDRIFVSVTNEHLIDMDHEASFFGAFLVGGGGSGGGGVAAHITGTRGRSNTLSSPNSKNEKALGRKINSWESSRSGHSFLSNLHLRNGELVIHEKGFYYIYSQTYFRFQEEIKENTKNDKQMVQYIYKYTSYPDPILLMKSARNSCWSKDAEYGLYSIYQGGIFELKENDRIFVSVTNEHLIDMDHEASFFGAFLVG in terms of EC50 measured by use of L929 cells is 0.88
